Published IC50 for UniProt O60341, assembled from different documents, is shown next.

Example results:
## Task State measured IC50 of the compound Cn1cc2cc(-n3nc(NC[C@H]4CCC[C@H](N)C4)c(Cl)c3-c3ccc(C#N)c(F)c3)ccc2n1 with UniProt O60341.
## Result < 500 nM

## Task System UniProt O60341. Read-out IC50. Item c1ccc([C@H]2C[C@@H]2NCC2(CNCc3nccs3)CC2)cc1 . Report value.
## Result 100 to 500 nM

## Task Give IC50; test system UniProt O60341; compound COc1ccc(-n2cc(C(=O)N3CC[C@H](N)C3)nc2-c2ccc(C#N)c(F)c2)cc1F
## Result < 100 nM

Now for a further compound.
## Task State recorded IC50 with UniProt O60341, entry Cn1cnc2cc(-c3ncc(N4CCC(N)CC4)nc3-c3ccc(C#N)c(F)c3)c(F)c(F)c21 , no comment.
## Result < 100 nM

---

Published IC50 for Lysine-specific histone demethylase 1A (Homo sapiens), assembled from different documents, is shown next.

Worked examples follow.
## Task # return IC50 for COc1ccc(-c2c(-c3ccc(C#N)nc3)nc(N3CCC(N)CC3)c(=O)n2C)cc1 , test system: Lysine-specific histone demethylase 1A (Homo sapiens)
## Result < 100 nM

## Task Please tell me the measured IC50 for NC(=O)CN[C@H]1CC1c1ccc(OCc2ccccc2)cc1 (some centres unmarked) ; system: Lysine-specific histone demethylase 1A (Homo sapiens).
## Result < 200 nM

## Task GET IC50 where system = Lysine-specific histone demethylase 1A (Homo sapiens) and item = CN(C)[C@H]1CC[C@H](c2nc(C3(CN[C@@H]4C[C@H]4c4ccccc4)CC3)no2)CC1
## Result 100 to 500 nM

## Task Retrieve IC50 on Lysine-specific histone demethylase 1A (Homo sapiens); query O=C1CN(c2nc(CCCN[C@@H]3C[C@H]3c3ccc(F)cc3)cn(Cc3ccccc3)c2=O)CCN1
## Result 7 nM

## Task Report IC50 under test system Lysine-specific histone demethylase 1A (Homo sapiens) for COc1ccc(-n2nc(NC[C@@H]3CCCNC3)cc2-c2ccc(C#N)c(F)c2)cc1 .
## Result < 500 nM

Further cases:
## Task Report value: IC50, system: Lysine-specific histone demethylase 1A (Homo sapiens), compound: Cn1ncc2cc(-n3nc(NC[C@@H]4CCC[C@@H](N)C4)cc3-c3ccc(C#N)c(F)c3)ccc21 (single isomer, unassigned)
## Result < 500 nM

## Task Please report the measured IC50 for COc1ccc(-c2c(-c3ccc(C#N)c(F)c3)nc(NC[C@H]3CCNC3)c(=O)n2C)cc1 tested on Lysine-specific histone demethylase 1A (Homo sapiens).
## Result < 100 nM

---

pIC50: −log10 of the molar value.
Literature compilation of pIC50 measurements on Lysine-specific histone demethylase 1A (Homo sapiens).

Consider the following illustrative entries.
## Task Quickly give me recorded pIC50 for CCOc1ccc(-c2c(-c3ccc(C#N)c(F)c3)nc(NC[C@H]3CCNC3)c(=O)n2C)cc1
## Result > 7.00

## Task Please give measured pIC50 of the following entry: CN[C@@H]1CCCN(C(=O)c2cc(-c3ccc(C#N)c(F)c3)n(-c3ccc(C4CC4)cc3F)n2)C1
## Result 7.68

## Task Report pIC50, nothing else, for this compound: NC1(CN[C@H]2CC2c2ccccc2)CC1 (some centres unmarked)
## Result 7.00 to 7.30

## Task Identify measured pIC50 corresponding to N#Cc1ccc(-c2nc3c(N4CCC[C@@H](N)C4)ccnc3n2-c2ccc(C3CC3)cc2F)cc1F
## Result 7.68

## Task Please give measured pIC50 of the following entry: CNC(=O)c1ccc(-c2c(-c3ccc(C#N)c(F)c3)nc(N3CCC(N)CC3)n(C)c2=O)cn1
## Result > 7.00

## Task Please list pIC50 recorded for the compound Cn1cc2cc(-n3c(-c4ccc(C#N)c(F)c4)nc(C(=O)N4CCC[C@@H](N)C4)c3Cl)ccc2n1
## Result > 7.00

More entries:
## Task Give pIC50 for the following compound: N#Cc1ccc(-c2cc(NC[C@H]3CCC[C@H](N)C3)nn2-c2ccc(-c3cnn(CCCO)c3)cc2)cc1F
## Result > 6.30

## Task For the compound COc1ccc(-n2nc(-c3ccc(C#N)c(F)c3)cc2C(=O)N2CCCC(N)C2)cc1 (centres unmarked) , give its reported pIC50.
## Result > 6.30
